- System: Liver microsome
- PROTOCOL SUMMARY: Unbound intrinsic glucuronidation clearance in human liver microsomes at 1 uM after 30 to 60 mins by LC-MS/MS analysis in presence of UDP-glucuronosyltransferase
- Assay type: ADME
Documented CL free across a set of compounds
Include the unit after the number when you answer.

Illustrative cases are given below, each with its answer.
stdin: Which CL free is reported with Liver microsome for this entry: O=C1[C@H](CC[C@H](O)c2ccc(F)cc2)[C@@H](c2ccc(O)cc2)N1c1ccc(F)cc1 [EZETIMIBE] ?
stdout: 2930 µL/min/mg

stdin: Lab note: need CL free for Cc1ccc(C)c(OCCCC(C)(C)C(=O)O)c1 [GEMFIBROZIL] on Liver microsome, anyone have it?
stdout: 259 µL/min/mg

stdin: Report CL free for C=CCN1CC[C@]23c4c5ccc(O)c4O[C@H]2C(=O)CC[C@@]3(O)[C@H]1C5 [NALOXONE] tested on Liver microsome.
stdout: 10 µL/min/mg

stdin: Recall the recorded CL free for COc1c(C)c2c(c(O)c1C/C=C(\C)CCC(=O)O)C(=O)OC2 [MYCOPHENOLIC ACID] with Liver microsome and state it.
stdout: 78.2 µL/min/mg

Others:
stdin: Fill in the recorded CL free for this compound, with Liver microsome as test system: O=C(O)Cc1ccccc1Nc1c(Cl)cccc1Cl [DICLOFENAC]
stdout: 761 µL/min/mg

stdin: Return CL free measured with Liver microsome given this compound: CCCc1nc2c(C)cc(-c3nc4ccccc4n3C)cc2n1Cc1ccc(-c2ccccc2C(=O)O)cc1
stdout: 76.9 µL/min/mg

====

Reported Drug metabolism by item:
- Test system: Liver microsome
- PROTOCOL SUMMARY: Fraction metabolized glucuronidation in human liver microsomes in presence of UDP-glucuronosyltransferase
- Assay type: ADME
Reply with the value as a number alone.

stdin: Record request: Drug metabolism value, item O=C(O)Cc1ccccc1Nc1c(Cl)cccc1Cl
stdout: 0.62

stdin: Requested field: Drug metabolism. Item: C=CCN1CC[C@]23c4c5ccc(O)c4O[C@H]2C(=O)CC[C@@]3(O)[C@H]1C5
stdout: 0.65

stdin: Given the entry CC(C)c1cccc(C(C)C)c1O , report its measured Drug metabolism.
stdout: 0.14

stdin: Report Drug metabolism for Cc1ccc(C)c(OCCCC(C)(C)C(=O)O)c1 please.
stdout: 0.79

stdin: Can you share its Drug metabolism? I mean this molecule: CCCc1nc2c(C)cc(-c3nc4ccccc4n3C)cc2n1Cc1ccc(-c2ccccc2C(=O)O)cc1
stdout: 1

Next:
stdin: Value lookup for Drug metabolism; key = COc1c(C)c2c(c(O)c1C/C=C(\C)CCC(=O)O)C(=O)OC2
stdout: 0.95

====

- PROTOCOL SUMMARY: Unbound intrinsic glucuronidation clearance in human intestinal microsomes at 1 uM after 30 to 60 mins by LC-MS/MS analysis in presence of UDP-glucuronosyltransferase
- Format: ADME, Intestine, Microsome
The entries below are paired with their reported log10 of CL free.
Kindly note that the scale is log10 and the underlying CL free is in µL/min/mg.

Example results:
stdin: Bench note: what log10 of CL free did COc1c(C)c2c(c(O)c1C/C=C(\C)CCC(=O)O)C(=O)OC2 [MYCOPHENOLIC ACID] show?
stdout: 1.07

stdin: Item under review: C=CCN1CC[C@]23c4c5ccc(O)c4O[C@H]2C(=O)CC[C@@]3(O)[C@H]1C5 [NALOXONE] . Reported log10 of CL free?
stdout: -0.30

stdin: log10 of CL free for O=C1[C@H](CC[C@H](O)c2ccc(F)cc2)[C@@H](c2ccc(O)cc2)N1c1ccc(F)cc1 [EZETIMIBE] ?
stdout: 2.62

stdin: I would be grateful if you could share the reported log10 of CL free for O=C(O)Cc1ccccc1Nc1c(Cl)cccc1Cl [DICLOFENAC] .
stdout: 1.87

stdin: Sample Cc1ccc(C)c(OCCCC(C)(C)C(=O)O)c1 [GEMFIBROZIL] — what was its log10 of CL free?
stdout: 1.38

# context switch: different molecule, same log10 of CL free
stdin: Given the entry CCCc1nc2c(C)cc(-c3nc4ccccc4n3C)cc2n1Cc1ccc(-c2ccccc2C(=O)O)cc1 , report its measured log10 of CL free.
stdout: 1.33

====

- PROTOCOL SUMMARY: Drug metabolism in human intestinal microsomes assessed as UGT1A8/2B7-mediated unbound intrinsic glucuronidation clearance at 1 uM after 30 to 60 mins by LC-MS/MS analysis in presence of 2% bovine serum albumin
- Type: ADME, Intestine
READOUT KIND: CL free (mL/min/g)
Only the number, expressed in mL/min/g, is required.

stdin: If you can, please state the reported CL free value of COc1c(C)c2c(c(O)c1C/C=C(\C)CCC(=O)O)C(=O)OC2 [MYCOPHENOLIC ACID] .
stdout: 0.292

====

Recorded CL free by entry
- Test system: Liver microsome
- PROTOCOL SUMMARY: Unbound intrinsic glucuronidation clearance in human liver microsomes at 1 uM after 30 to 60 mins by LC-MS/MS analysis in presence of UDP-glucuronosyltransferase and 1% bovine serum albumin
- Format: ADME
Entry rule: numbers only, all in µL/min/mg.

stdin: What CL free value was documented for this compound, CCCc1nc2c(C)cc(-c3nc4ccccc4n3C)cc2n1Cc1ccc(-c2ccccc2C(=O)O)cc1 ?
stdout: 395

stdin: CL free for Cc1ccc(C)c(OCCCC(C)(C)C(=O)O)c1 [GEMFIBROZIL] ?
stdout: 1840

stdin: Given the entry COc1c(C)c2c(c(O)c1C/C=C(\C)CCC(=O)O)C(=O)OC2 [MYCOPHENOLIC ACID] , report its measured CL free.
stdout: 233

Now turn to the next compound.
stdin: Form field: reported CL free of O=C(O)Cc1ccccc1Nc1c(Cl)cccc1Cl [DICLOFENAC]
stdout: 1190

====

fraction unbound at 1 µM for assorted compounds
- PROTOCOL SUMMARY: Fraction unbound in human liver microsomes at 1 uM […] by LC-MS/MS analysis in presence of 2% bovine serum albumin
- Assay type: ADME

stdin: Could you share which fraction unbound at 1 µM value was measured for C=CCN1CC[C@]23c4c5ccc(O)c4O[C@H]2C(=O)CC[C@@]3(O)[C@H]1C5 ?
stdout: 0.96

Moving on to another compound below.
stdin: Request the reported fraction unbound at 1 µM associated with O=C1[C@H](CC[C@H](O)c2ccc(F)cc2)[C@@H](c2ccc(O)cc2)N1c1ccc(F)cc1
stdout: 0.05

====

- System: Liver microsome
- PROTOCOL SUMMARY: Fraction metabolized glucuronidation in human liver microsomes in presence of UDP-glucuronosyltransferase and bovine serum albumin
- Assay type: ADME
Could you label it 1 (yes) if measured Drug metabolism is 0.9 or higher, and 0 (no) otherwise?

Reference set (4 entries):
stdin: Dear colleague, could you confirm whether CC(C)c1cccc(C(C)C)c1O has Drug metabolism at or above 0.9?
stdout: 0 (no)

stdin: Would you say Cc1ccc(C)c(OCCCC(C)(C)C(=O)O)c1 shows Drug metabolism at minimum 0.9?
stdout: 0 (no)

stdin: Determine whether measured Drug metabolism meets or exceeds 0.9 for COc1c(C)c2c(c(O)c1C/C=C(\C)CCC(=O)O)C(=O)OC2
stdout: 1 (yes)

stdin: I'd appreciate it if you could say whether O=C(O)Cc1ccccc1Nc1c(Cl)cccc1Cl has Drug metabolism at least equal to 0.9.
stdout: 0 (no)

Kindly consider the entry below.
stdin: Threshold query (Drug metabolism >= 0.9) on CCCc1nc2c(C)cc(-c3nc4ccccc4n3C)cc2n1Cc1ccc(-c2ccccc2C(=O)O)cc1
stdout: 1 (yes)

====

- PROTOCOL SUMMARY: Fraction unbound in human intestinal microsomes at 1 uM after 30 to 60 mins by LC-MS/MS analysis
- Assay type: ADME, Intestine, Microsome
READOUT KIND: fraction unbound at 1 µM
Could you keep your reply to the number by itself?

Completed entries (count: 5):
stdin: What does the data say about its fraction unbound at 1 µM? Entry: COc1c(C)c2c(c(O)c1C/C=C(\C)CCC(=O)O)C(=O)OC2
stdout: 0.71

stdin: Returns the measured fraction unbound at 1 µM for the input compound. Input: O=C(O)Cc1ccccc1Nc1c(Cl)cccc1Cl
stdout: 0.98

stdin: Which fraction unbound at 1 µM value belongs to C=CCN1CC[C@]23c4c5ccc(O)c4O[C@H]2C(=O)CC[C@@]3(O)[C@H]1C5 ?
stdout: 1

stdin: // fraction unbound at 1 µM lookup, key: CCCc1nc2c(C)cc(-c3nc4ccccc4n3C)cc2n1Cc1ccc(-c2ccccc2C(=O)O)cc1
stdout: 0.48

stdin: Give its fraction unbound at 1 µM value. Item: O=C1[C@H](CC[C@H](O)c2ccc(F)cc2)[C@@H](c2ccc(O)cc2)N1c1ccc(F)cc1
stdout: 0.18

Please find the next compound below.
stdin: Give the measured fraction unbound at 1 µM of Cc1ccc(C)c(OCCCC(C)(C)C(=O)O)c1 .
stdout: 0.82

====

- PROTOCOL SUMMARY: Unbound intrinsic glucuronidation clearance in human intestinal microsomes at 1 uM after 30 to 60 mins by LC-MS/MS analysis in presence of UDP-glucuronosyltransferase and 1% bovine serum albumin
- Format: ADME, Intestine, Microsome
Documented CL free across a set of compounds
Output spec: scalar in µL/min/mg, unitless text.

stdin: What value of CL free has been recorded for this entry: COc1c(C)c2c(c(O)c1C/C=C(\C)CCC(=O)O)C(=O)OC2 [MYCOPHENOLIC ACID]
stdout: 57.8

stdin: CL free lookup needed for O=C(O)Cc1ccccc1Nc1c(Cl)cccc1Cl [DICLOFENAC] , thanks.
stdout: 325

stdin: Look up CL free: Cc1ccc(C)c(OCCCC(C)(C)C(=O)O)c1 [GEMFIBROZIL]
stdout: 40

More entries:
stdin: CL free for CCCc1nc2c(C)cc(-c3nc4ccccc4n3C)cc2n1Cc1ccc(-c2ccccc2C(=O)O)cc1 ?
stdout: 91.4
